Each entry below carries its recorded Area below the reflex amplitude linking line.
# Test system: Wistar male rats
# ASSAY PROCEDURE: Flexor reflex in spinalized rats
# Type: in vivo
# TEST CONDITIONS: intravenous, 0.3 mg/kg (footnote *); covering 60 minutes

Sample records with Area below the reflex amplitude linking line:
> print(dat)
                                   molecule   measured.target  result
1  NC(=O)[C@@H]1CCCN1C(=O)[C@H](Cc1ccccc1)NC(=O)[C@@H]1CCC(=O)C1 [Compound 37]  Wistar male rats    5868
2  NC(=O)C1CCCN1C(=O)C(Cc1cnc[nH]1)NC(=O)C1CCC(=O)O1 (stereo not shown) [DN1417, reference compound]  Wistar male rats    8152
3  CCC[C@H](NC(=O)[C@H]1NC(=O)CC1(C)C)C(=O)N1CCC[C@H]1C(N)=O [Compound 33A]  Wistar male rats    7172

Continue with the molecule presented below.
Read off the recorded Area below the reflex amplitude linking line for CCC[C@H](NC(=O)[C@H]1NC(=O)C[C@H]1C)C(=O)N1CCC[C@H]1C(N)=O [Compound 29A]
7063
